What combination Emax was measured for each of the following?
- Tested on: NCI-H64 (Small Cell Lung Carcinoma)
- test details: combination Emax (second highest fraction inhibited in the dose matrix, 72 h); higher = more inhibition; extreme values may be limits of the assay
Reply briefly: the number, and no unit.

Provide NCI-H64 (Small Cell Lung Carcinoma) combination Emax reading for N#Cc1cnc(Nc2cc(NC[C@H]3CNCCO3)c(C(F)(F)F)cn2)cn1 [SRA737] + CCc1c2c(nc3ccc(O)cc13)-c1cc3c(c(=O)n1C2)COC(=O)[C@]3(O)CC [SN-38] (first compound max 10 µM, 7x7, partner max 0.3 µM) .
0.818

Provide NCI-H64 (Small Cell Lung Carcinoma) combination Emax reading for C[C@@H]1COCCN1c1cc(C2([S@](C)(=N)=O)CC2)nc(-c2ccnc3[nH]ccc23)n1 [AZD6738] + O=C(c1cc(Cc2n[nH]c(=O)c3ccccc23)ccc1F)N1CCN(C(=O)C2CC2)CC1 [Olaparib] (first compound max 10 µM, 7x7, partner max 10 µM) .
0.692

Provide NCI-H64 (Small Cell Lung Carcinoma) combination Emax reading for CC1(C)CCC(CN2CCN(c3ccc(C(=O)NS(=O)(=O)c4ccc(NCC5CCOCC5)c([N+](=O)[O-])c4)c(Oc4cnc5[nH]ccc5c4)c3)CC2)=C(c2ccc(Cl)cc2)C1 [Venetoclax] + CN(C)CCCOc1ccc(-c2ccc3ncc4c(c3c2)n(C2CCOCC2)c(=O)n4C)cn1 [AZD0156] (first compound max 1 µM, 7x7, partner max 1 µM) .
0.25

Provide NCI-H64 (Small Cell Lung Carcinoma) combination Emax reading for Cc1cc2ncnn2cc1Nc1ncc2c(n1)n(C1CCOCC1)c(=O)n2C [AZD7648] + C=CCn1c(=O)c2cnc(Nc3ccc(N4CCN(C)CC4)cc3)nc2n1-c1cccc(C(C)(C)O)n1 [AZD1775] (first compound max 10 µM, partner max 1 µM) .
0.89

====

- System: CAS-1 (Glioblastoma)
- test details: combination Emax (second highest fraction inhibited in the dose matrix, 72 h); higher = more inhibition; extreme values may be limits of the assay
What combination Emax was measured for each of the following?

Return the recorded combination Emax value; entry: Cc1c2c(nn1C)CSCc1cc(n(C)n1)CSc1cc(c3ccccc3c1)OCCCc1c(C(=O)O)n(C)c3c-2c(Cl)ccc13 [AZD5991] + C=CCn1c(=O)c2cnc(Nc3ccc(N4CCN(C)CC4)cc3)nc2n1-c1cccc(C(C)(C)O)n1 [AZD1775] (first compound max 1 µM, partner max 1 µM)
0.852

Return the recorded combination Emax value; entry: CN(CCO)CC[C@H](CSc1ccccc1)Nc1ccc(S(=O)(=O)NC(=O)c2ccc(N3CCC([C@@H](O)c4ccccc4-c4ccc(Cl)cc4)CC3)cc2)cc1S(=O)(=O)C(F)(F)F [AZD4320] + C[C@@H]1COCCN1C2=NC(=NC(=C2)C3(CC3)[S@](=N)(=O)C)C4=C5C=CNC5=NC=C4 [AZD6738] (first compound max 1 µM, 7x7, partner max 10 µM)
0.787

Return the recorded combination Emax value; entry: Cc1c2c(nn1C)CSCc1cc(n(C)n1)CSc1cc(c3ccccc3c1)OCCCc1c(C(=O)O)n(C)c3c-2c(Cl)ccc13 [AZD5991] + CC1(C)CCC(CN2CCN(c3ccc(C(=O)NS(=O)(=O)c4ccc(NCC5CCOCC5)c([N+](=O)[O-])c4)c(Oc4cnc5[nH]ccc5c4)c3)CC2)=C(c2ccc(Cl)cc2)C1 [Venetoclax] (first compound max 1 µM, 7x7, partner max 1 µM)
0.286
